Test system: RAW-Dual
ASSAY_TEXT: NF-kB SEAP reporter activity, fold change vs agonist alone; cytotoxicity flag (confluency mask): not cytotoxic; higher = enhanced NF-kB activity
RUN_PARAMETERS: agonist: LPS (TLR4) 0.1 ug/mL
Over roughly 2,900 compounds, “NF-kB SEAP reporter activity, fold change vs agonist alone” has its median near 0.99; the highest 2% begin near 2.6. Many of the other results were omitted from the sample, so the highest values are more common in it than they were.
READOUT_KIND: NF-kB SEAP reporter activity
# answer = number (no unit)

C#CCNC1CCc2ccccc21 (stereo not drawn) (library stock concentration (final ~1000-fold dilution): 10 mM)
1.06
Cc1ncc(NC(=O)c2cccc(C(F)(F)F)c2)cc1-c1cnc(OC2CCOCC2)c(N2CCOCC2)c1 (library stock concentration (final ~1000-fold dilution): 10 mM)
1.31

Now consider a different molecule.
I looked up CC(NC(=O)C(NC(=O)OCc1ccccc1)C(C)C)C(=O)NC(CC(=O)O)C(=O)CF (stereo not drawn) (library stock concentration (final ~1000-fold dilution): 10 mM) and its NF-kB SEAP reporter activity for RAW-Dual was 1.23

* * *

System: RAW-Dual
ASSAY_TEXT: NF-kB SEAP reporter activity, fold change vs agonist alone; cytotoxicity flag (confluency mask): not cytotoxic; higher = enhanced NF-kB activity
RUN_PARAMETERS: agonist: Pam2CSK4 (TLR2/6) 0.1 ug/mL
Whole data set: some 2,900 compounds, median “NF-kB SEAP reporter activity, fold change vs agonist alone” near 0.99, cut for the highest 2% near 2.6. Only a selection was taken, and the highest values are over-represented in it overall.
Decision: NF-kB SEAP reporter activity compared against 0.5; not below it gives label 1, below it gives label 0.

Worked cases, answers included:
CCN(C)S(=O)(=O)Nc1ccc(F)c(C(=O)c2c[nH]c3ncc(-c4cnc(C5CC5)nc4)cc23)c1F (library stock concentration (final ~1000-fold dilution): 10 mM)
label 0
CCOC(=O)C(CCc1ccccc1)NC(C)C(=O)N1C(C(=O)O)CC2CCCCC21 (stereo not given) (library stock concentration (final ~1000-fold dilution): 10 mM)
label 1
CC12CCC(=O)C=C1C=CC1C2CCC2(C)C1CCC21CCC(=O)O1 (stereo not given) (library stock concentration (final ~1000-fold dilution): 10 mM)
label 1
O=C(c1c(F)ccc(NS(=O)(=O)N2CCC(F)C2)c1F)c1c[nH]c2ncc(-c3cnc(C4CC4)nc3)cc12 (stereo not given) (library stock concentration (final ~1000-fold dilution): 10 mM)
label 1

Kindly determine if NF-kB SEAP reporter activity recorded for CCCS(=O)(=O)Nc1ccc(F)c(C(=O)c2c[nH]c3ncc(Cl)cc23)c1F (library stock concentration (final ~1000-fold dilution): 10 mM) is above or exactly 0.5.
label 0

* * *

System: RAW-Dual
ASSAY_TEXT: NF-kB SEAP reporter activity, fold change vs agonist alone; cytotoxicity flag (confluency mask): not cytotoxic; higher = enhanced NF-kB activity
RUN_PARAMETERS: agonist: LPS (TLR4) 0.1 ug/mL
Over roughly 2,900 compounds, “NF-kB SEAP reporter activity, fold change vs agonist alone” has its median near 0.99; the highest 2% begin near 2.6. The full list was thinned out, with the highest values kept by preference.
Reported NF-kB SEAP reporter activity values for a set of compounds
Keep it simple and answer with nothing but the number.

Known NF-kB SEAP reporter activity results, listed for orientation:
Cc1cc([N+](=O)[O-])ccc1NS(=O)(=O)c1cc(Cl)ccc1Cl (library stock concentration (final ~1000-fold dilution): 10 mM)
3.09
Cc1c[nH]c(-c2cnc(NCCNc3ccc(C#N)cn3)nc2-c2ccc(Cl)cc2Cl)n1 (library stock concentration (final ~1000-fold dilution): 10 mM)
3.08

Value of NF-kB SEAP reporter activity reported for the compound C[C@@H]1O[C@@H](O[C@H]2[C@H](OC(=O)[C@]34CCC(C)(C)C[C@H]3C3=CC[C@@H]5[C@@]6(C)C[C@H](O)[C@H](O[C@@H]7O[C@H](CO)[C@@H](O)[C@H](O)[C@H]7O)[C@@](C)(CO)[C@@H]6CC[C@@]5(C)[C@]3(C)CC4)O[C@H](CO)[C@@H](O)[C@@H]2O)[C@H](O)[C@H](O)[C@H]1O[C@@H]1OC[C@@H](O)[C@H](O)[C@H]1O (library stock concentration (final ~1000-fold dilution): 10 mM) is 1.11

Reported NF-kB SEAP reporter activity ( COc1cccc(NC(=O)/C=C/c2ccc(Cl)cc2)c1 (library stock concentration (final ~1000-fold dilution): 10 mM) ) = 1.18

Looking up Cc1ccc([N+](=O)[O-])cc1S(=O)(=O)N(C)C (library stock concentration (final ~1000-fold dilution): 10 mM) , I see its NF-kB SEAP reporter activity listed as 1.07

Recorded result, CCCN(CCC)C(=O)C1=Cc2ccc(-c3ccc(C(=O)N4CCCC4)cc3)cc2N=C(N)C1 (library stock concentration (final ~1000-fold dilution): 1 mM) , NF-kB SEAP reporter activity: 2.58

Noted for Cc1c[nH]c(-c2cnc(NCCNc3ccc(C#N)cn3)nc2-c2ccc(Cl)cc2Cl)n1.Cl (library stock concentration (final ~1000-fold dilution): 10 mM) : its NF-kB SEAP reporter activity reads 2.97

The recorded NF-kB SEAP reporter activity for entry O=c1oc2cc(O)ccc2c2ccc(O)cc12 (library stock concentration (final ~1000-fold dilution): 10 mM) equals 1.08

Notebook: CC1CNc2c(cccc2S(=O)(=O)NC(CCCNC(=N)N)C(=O)N2CCC(C)CC2C(=O)O)C1.O (stereo not given) (library stock concentration (final ~1000-fold dilution): 10 mM) , NF-kB SEAP reporter activity read as 0.94

Record summary for Cn1cc(/C=C/C(=O)c2cccc(F)c2)cc1/C=C/C(=O)NO (library stock concentration (final ~1000-fold dilution): 10 mM) : reported NF-kB SEAP reporter activity = 1.26

* * *

Measured NF-kB SEAP reporter activity accompanies every entry in the list below.
System: RAW-Dual
ASSAY_TEXT: NF-kB SEAP reporter activity, fold change vs agonist alone; cytotoxicity flag (confluency mask): not cytotoxic; higher = enhanced NF-kB activity
RUN_PARAMETERS: agonist: LPS (TLR4) 0.1 ug/mL
Whole data set: some 2,900 compounds, median “NF-kB SEAP reporter activity, fold change vs agonist alone” near 0.99, cut for the highest 2% near 2.6. What follows is part of a selection rich in the highest values, with near analogues and random picks from the rest.
The answer should be written as a number, with no unit following it.

These recorded examples may help you get a feel for the data.
CCOC(=O)c1ccc(NC2CCCCC2)c(N)c1 (library stock concentration (final ~1000-fold dilution): 10 mM)
2.07
N=C(N)NCCCCC1NC(=O)CCSSCC(C(N)=O)NC(=O)C2CCCN2C(=O)C(Cc2c[nH]c3ccccc23)NC(=O)C(CC(=O)O)NC(=O)CNC1=O (configuration not stated) (library stock concentration (final ~1000-fold dilution): 10 mM water)
1.2
Cl.Cl.c1cc(-c2nc3ccc(OCCCN4CCCC4)cc3o2)ccc1OCCCN1CCCC1 (library stock concentration (final ~1000-fold dilution): 1 mM)
0.935

Next, consider the following compound.
Note to self: NF-kB SEAP reporter activity recorded for CCn1cc(C(=O)O)c(=O)c2c(N)c(F)c(NC3CCCCC3)cc21 (library stock concentration (final ~1000-fold dilution): 10 mM) was 4.89

* * *

Tested on: RAW-Dual
ASSAY_TEXT: NF-kB SEAP reporter activity, fold change vs agonist alone; cytotoxicity flag (confluency mask): not cytotoxic; higher = enhanced NF-kB activity
RUN_PARAMETERS: agonist: LPS (TLR4) 0.1 ug/mL
In all, about 2,900 compounds were measured (“NF-kB SEAP reporter activity, fold change vs agonist alone”: median about 0.99, highest 2% from about 2.6 on). Many of the other results were omitted from the sample, so the highest values are more common in it than they were.
READOUT_KIND: NF-kB SEAP reporter activity
Respond numerically, and do not add a unit to the figure.

Briefly, NF-kB SEAP reporter activity measured for COc1c(O)c(C)cc2c1C(=O)c1c(O)cccc1C2=O (library stock concentration (final ~1000-fold dilution): 10 mM) : 1.19

Form field NF-kB SEAP reporter activity, entry Nc1ccc(F)cc1NC(=O)c1ccc(CNC(=O)/C=C/c2cccnc2)cc1 (library stock concentration (final ~1000-fold dilution): 10 mM) : 3.7

What the record says about Cc1c(C(=O)Nc2ccc(N3CC(C)OC(C)C3)nc2)cccc1-c1ccc(OC(F)(F)F)cc1 (stereo unspecified) (library stock concentration (final ~1000-fold dilution): 10 mM) : NF-kB SEAP reporter activity is 1.13

The molecule listed as Cl.O=c1n(CCCN2CCN(c3cccc(Cl)c3)CC2)nc2ccccn12 (library stock concentration (final ~1000-fold dilution): 2 mM) shows NF-kB SEAP reporter activity equal to 1.15

* * *

Below: a set of entries, each annotated with reported NF-kB SEAP reporter activity.
Test system: RAW-Dual
ASSAY_TEXT: NF-kB SEAP reporter activity, fold change vs agonist alone; higher = enhanced NF-kB activity
RUN_PARAMETERS: library stock concentration (final ~1000-fold dilution): 10 mM; cytotoxicity flag (confluency mask): not cytotoxic; agonist: MPLA (TLR4) […]
Whole data set: some 2,900 compounds, median “NF-kB SEAP reporter activity, fold change vs agonist alone” near 0.99, cut for the highest 2% near 2.6. This excerpt belongs to a sample that is enriched for the highest values.
Write no unit; give the number alone.

Examples from the recorded data:
COc1cc2c(cc1OC)CN(C(=O)/C=C/c1c(-c3ccccc3)n(C)c3ncccc13)CC2.Cl
1.02
COC(=O)C1=C(C)NC(C)=C(C(=O)OC2CCCN(Cc3ccccc3)C2)C1c1cccc([N+](=O)[O-])c1.Cl (centres undefined)
0.978
O=C(/C=C/N1CC2CC1CN2c1ccccn1)c1ccccc1O (centres undefined)
1.03
N#C/C(C(=O)c1ccc(Cl)cc1Cl)=C1\NC(=O)c2ccccc2N1
1.11

// C=CC(=O)N1CCCC(n2nc(-c3ccc(Oc4ccccc4)cc3)c(C(N)=O)c2N)C1 (centres undefined) : NF-kB SEAP reporter activity value = 0.637

Recorded result, NC(=O)C(=Cn1cnc(-c2cc(C(F)(F)F)cc(C(F)(F)F)c2)n1)c1cncnc1 , NF-kB SEAP reporter activity: 0.772

Recorded values, source the supplement of paper PMC10037445.
